Listed here are binders together with their documented KD ratio to GLS3000.
# STUDY_SYSTEM: T1, CD3 epsilon homodimer protein (UniProt P07766 23-126)
# T1 construct: also called CD3 (CD3 epsilon)
# T1 sequence (P07766 23-126): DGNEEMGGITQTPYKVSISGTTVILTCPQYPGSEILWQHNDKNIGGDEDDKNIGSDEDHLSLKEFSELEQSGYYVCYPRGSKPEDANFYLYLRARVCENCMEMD
# PROCEDURE_DETAILS: SPR, antibody over immobilised CD3e homodimer;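 note: SPR at 25 °C with CD3 epsilon homodimer amine-coupled to a CM4 sensor chip and antibody flowed over as analyte in HBS-EP+ running buffer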
Quick one: just the number, no unit, thanks!

BINDER	RECORDED_VALUE
CE115HA000/GLS3000 R54D (antibody, IgG1, name in Kabat numbering, V domains shown, one-arm IgG1) VH: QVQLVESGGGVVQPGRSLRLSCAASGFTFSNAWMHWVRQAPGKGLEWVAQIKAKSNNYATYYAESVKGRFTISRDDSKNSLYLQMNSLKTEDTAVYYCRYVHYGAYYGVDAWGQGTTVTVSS VL: DIVMTQSPLSLPVTPGEPASISCRSSQSLVHSNRNTYLHWYQQKPGQAPRLLIYKVSNDFSGVPDRFSGSGSGTDFTLKISRVEAEDVGVYYCGQGTQVPYTFGQGTKLEIK	1.8
CE115HA000/GLS3000 R24E (antibody, IgG1, name in Kabat numbering, V domains shown, one-arm IgG1) VH: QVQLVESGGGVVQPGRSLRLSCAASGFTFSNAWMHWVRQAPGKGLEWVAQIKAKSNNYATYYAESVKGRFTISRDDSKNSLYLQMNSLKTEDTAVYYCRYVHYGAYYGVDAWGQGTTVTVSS VL: DIVMTQSPLSLPVTPGEPASISCESSQSLVHSNRNTYLHWYQQKPGQAPRLLIYKVSNRFSGVPDRFSGSGSGTDFTLKISRVEAEDVGVYYCGQGTQVPYTFGQGTKLEIK	0.89

So what's the measured KD ratio to GLS3000 for this one? CE115HA000/GLS3000 K50Y (antibody, IgG1, name in Kabat numbering, V domains shown, one-arm IgG1) VH: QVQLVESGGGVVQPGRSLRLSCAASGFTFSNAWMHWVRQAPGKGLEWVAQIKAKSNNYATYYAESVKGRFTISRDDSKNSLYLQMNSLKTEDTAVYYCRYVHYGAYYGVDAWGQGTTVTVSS VL: DIVMTQSPLSLPVTPGEPASISCRSSQSLVHSNRNTYLHWYQQKPGQAPRLLIYYVSNRFSGVPDRFSGSGSGTDFTLKISRVEAEDVGVYYCGQGTQVPYTFGQGTKLEIK
195
